test system: RPMI-8226; experiment: NCI tumour cell line growth inhibition, 48 h
Activity calls are given as the source filed them. Rule as the data show it: active = GI50 up to about 1.1 µM and inactive = higher.
Output constraint: value belongs to active, inactive

Prompt line: Write down the call the test reported for this molecule. Item: O=C1N/C(=N\N=C\c2ccccc2)C(c2ccccc2)O1 (stereo not given)
Response line: inactive

Prompt line: Assay outcome for O=C(Nc1ccc(Cl)cc1)c1cc(S(=O)(=O)Nc2nnc3c(Cl)cc(C(F)(F)F)cn23)c(S)cc1Cl : what was it?
Response line: inactive

Prompt line: So what was the verdict on N#[N+]c1ccccc1Sc1ccc(Cl)cc1 in this test?
Response line: inactive

Prompt line: Record request — test call for Cc1nc2c(c(=O)[nH]1)S/C(=C(/C#N)c1nc3ccccc3[nH]1)N2c1ccccc1
Response line: inactive

Prompt line: Test call for this molecule, please: CCCCCCCCCCC(O)[C@H]1CCC(C2CC[C@H]([C@H](O)CCCCCCCCCCC(O)CC3=CC(C)OC3=O)O2)O1 (stereo not given in full)
Response line: inactive

Prompt line: Could you please tell me the result logged for C/C(=N\NC(N)=S)c1sc(-n2nc(-c3ccccc3)cc2-c2ccccc2)nc1C in this assay?
Response line: inactive

Prompt line: Which outcome was entered for the molecule O=C(O)C1C2c3ccccc3C(c3ccccc32)C1C(=O)NCC1CC1 (stereo not given) in this test?
Response line: inactive

Prompt line: What did this assay record as the result for O=C(CCl)NNC1=Nc2ccc(Cl)cc2SC1 ?
Response line: inactive

Prompt line: Entry COC1=C2CC(C)CC(OC)C(OC(=O)CN)[C@H](C)/C=C(\C)C(OC(N)=O)C(OC)/C=C\C=C(/C)C(=O)NC(=CC1=O)C2=O (stereo not given in full) : call = ?
Response line: active

Prompt line: Lab log entry: Cc1cccc(/C=C2\CCCCCC2=O)c1 — outcome as called in the assay?
Response line: inactive

Prompt line: Each molecule tested received a call. Report the one for CCCCN(c1ccccc1)c1ncnc2c1cnn2C .
Response line: inactive

Prompt line: Look up the recorded call for O=C(CCCNc1nc(-c2ccccc2)cs1)c1cccs1 in this test.
Response line: inactive

Prompt line: Each molecule tested received a call. Report the one for CC(=O)OCC1OC(OCCCOP(=O)(OCCC#N)OCC2OC(n3cnc4c(N)ncnc43)C(OC(=O)c3ccccc3)C2OC(=O)c2ccccc2)C(OC(C)=O)C(OC(C)=O)C1OC(C)=O (stereo not given) .
Response line: inactive

Prompt line: Called result for C=C(C=O)CCCC(C)[C@@H]1CCC23CC12CCC1[C@@]2(C)CCC(OC(C)=O)C(C)(C)C2CC(OC2OC(COC(C)=O)C(O)C(O)C2O)[C@]13C (stereo not given in full)
Response line: active

Prompt line: Please share the test call associated with Cc1cc2c(nn1)CCc1c-2no[n+]1[O-] .
Response line: inactive

Prompt line: # fetch the recorded call for N#CC(C#N)=c1c(=O)c2c3ccccc3cc3cccc1c32 here
Response line: inactive

Prompt line: I would be grateful if you could indicate the recorded call for NC(=O)CN1C=CCC(C(N)=O)=C1 [CARICOTAMIDE] .
Response line: inactive

Prompt line: Assay result, entry N#CC(C(=O)CCC(=O)Nc1cccc(C(F)(F)F)c1)c1ccccc1 (stereo not given) — outcome?
Response line: inactive

Prompt line: GET /call?item= CCCCCCCCCC(=O)OCC1OC(n2cc(F)c(=O)[nH]c2=O)C(N)C(OC(=O)CCCCCCCCC)C1O (stereo not given) returns the recorded outcome of this test.
Response line: inactive
